Values were extracted from paper PMC6104635.

# procedure.details: brain homogenate binding, rat
# Assay type: in vitro ADME
value.type: fraction unbound

> print(dat)
                                   compound  reported.measurement
1  CCN(C(=O)C1CCN(S(=O)(=O)c2ccc3[nH]ncc3c2)CC1)[C@@H]1CCc2ccccc21 [Compound 8]                 0.017

====

# procedure.details: rat brain distribution
# Assay type: in vivo
# test.settings: male, Sprague-Dawley, brain and plasma
value.type: Kp

> print(dat)
                                test.smiles  value.type  reported.measurement
1  CCN(C(=O)C1CCN(S(=O)(=O)c2ccc3[nH]ncc3c2)CC1)[C@@H]1CCc2ccccc21          Kp                  0.17

====

# tested.target: UniProtKB P08912
# Sequence (P08912 whole entry): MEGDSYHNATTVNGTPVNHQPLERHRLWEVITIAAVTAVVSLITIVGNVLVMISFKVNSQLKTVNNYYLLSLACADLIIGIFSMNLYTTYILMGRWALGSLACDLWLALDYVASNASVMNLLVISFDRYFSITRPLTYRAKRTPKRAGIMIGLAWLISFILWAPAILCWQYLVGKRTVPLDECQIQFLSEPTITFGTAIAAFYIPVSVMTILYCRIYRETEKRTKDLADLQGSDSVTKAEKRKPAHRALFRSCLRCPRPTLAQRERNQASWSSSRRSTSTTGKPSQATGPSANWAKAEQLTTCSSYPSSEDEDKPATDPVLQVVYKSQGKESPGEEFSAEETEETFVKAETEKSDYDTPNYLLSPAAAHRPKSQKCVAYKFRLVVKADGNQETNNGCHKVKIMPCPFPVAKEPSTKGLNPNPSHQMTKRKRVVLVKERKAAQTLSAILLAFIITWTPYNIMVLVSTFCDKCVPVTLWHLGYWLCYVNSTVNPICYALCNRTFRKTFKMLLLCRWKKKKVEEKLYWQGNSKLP
# procedure.details: calcium mobilization assay, hM5-CHO cells, FDSS7000
# Assay type: cell-based
# test.settings: read-out: hM5 EC50; PAM, functional calcium assay, n = 3
pEC50: −log10 of the molar value.
value.type: pEC50

> print(dat)
                                   compound  reported.measurement
1  CCCN(C(=O)C1CCN(S(=O)(=O)c2ccc3[nH]ncc3c2)CC1)[C@@H]1CCc2c(F)cccc21 [Compound 18g]                  7.39

====

# tested.target: rat M5 (Rattus norvegicus)
# Sequence (P08911 whole entry): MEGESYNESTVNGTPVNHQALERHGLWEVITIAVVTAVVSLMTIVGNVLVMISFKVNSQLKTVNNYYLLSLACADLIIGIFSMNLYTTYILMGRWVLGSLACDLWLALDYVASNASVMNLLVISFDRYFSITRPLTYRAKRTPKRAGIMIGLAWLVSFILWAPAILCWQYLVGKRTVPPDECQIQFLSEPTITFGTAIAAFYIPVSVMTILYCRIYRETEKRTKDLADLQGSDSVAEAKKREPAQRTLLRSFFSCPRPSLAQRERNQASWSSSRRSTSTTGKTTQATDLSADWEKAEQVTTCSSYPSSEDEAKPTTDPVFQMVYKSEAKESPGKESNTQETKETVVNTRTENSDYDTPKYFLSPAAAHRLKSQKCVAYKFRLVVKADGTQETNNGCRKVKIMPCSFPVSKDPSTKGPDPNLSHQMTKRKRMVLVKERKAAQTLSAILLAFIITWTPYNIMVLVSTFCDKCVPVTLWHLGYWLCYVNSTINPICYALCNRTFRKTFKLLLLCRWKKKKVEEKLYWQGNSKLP
# procedure.details: calcium mobilization assay, rM5-CHO cells, FDSS7000
# Assay type: cell-based
# test.settings: rM5 pEC50 ± SEM, PAM, functional calcium assay, n = 3
value.type: EC50

> print(dat)
                                test.smiles  value.type  reported.measurement
1  CCN(C(=O)C1CCN(S(=O)(=O)c2ccc3[nH]ncc3c2)CC1)[C@@H]1CCc2ccccc21        EC50                380 nM

====

# tested.target: rat M1 (Rattus norvegicus)
# Sequence (P08482 whole entry): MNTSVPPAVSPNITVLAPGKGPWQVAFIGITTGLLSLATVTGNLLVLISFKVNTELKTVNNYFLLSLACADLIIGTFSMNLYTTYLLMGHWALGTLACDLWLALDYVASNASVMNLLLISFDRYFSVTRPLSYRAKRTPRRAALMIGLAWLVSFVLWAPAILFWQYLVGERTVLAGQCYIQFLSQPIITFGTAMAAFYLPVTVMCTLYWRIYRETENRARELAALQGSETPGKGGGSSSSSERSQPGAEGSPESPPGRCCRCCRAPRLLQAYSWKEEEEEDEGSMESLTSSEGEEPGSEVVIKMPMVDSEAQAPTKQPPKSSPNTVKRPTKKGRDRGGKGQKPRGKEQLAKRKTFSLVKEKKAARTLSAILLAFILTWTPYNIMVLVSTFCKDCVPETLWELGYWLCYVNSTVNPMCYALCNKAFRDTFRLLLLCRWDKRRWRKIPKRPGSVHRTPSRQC
# procedure.details: mAChR selectivity, PAM activity at rat M1
# Assay type: cell-based
# test.settings: read-out: rat M1 EC50
value.type: EC50 (µM)

> print(dat)
                                   compound  reported.measurement
1  CCCN(C(=O)C1CCN(S(=O)(=O)c2ccc3[nH]ncc3c2)CC1)[C@@H]1CCc2c(F)cccc21 [Compound 18g]                 0.904
